# Test system: HBeAg
# Protocol Summary: PHH natural infection assay, HBeAg (alphalisa)
# Format: cell-based, HBV
# Details: Hepatitis B virus, read-out: HBeAg IC50
Recorded IC50 determines the label; the label ranges are low interval (below 1000 nM), middle interval (1000 nM to below 2000 nM), high interval (2000 nM or more)

Sample answers from the record:
Compound | Group Label
COC(=O)Nc1ccc(-c2nc3c(F)cccc3o2)cc1 [Example 58] | high interval
O=C(Nc1ccc(-c2nc3ccc(F)c(F)c3o2)cc1)C1CCS(=O)(=O)C1 (stereo not shown) [Example 83] | high interval
Cc1cnc(C(=O)Nc2ccc(-c3nc4ccc(F)c(F)c4o3)cc2)o1 [Example 78] | middle interval
CC(C)(C)C(=O)Nc1ccc(-c2nc3ccc(F)cc3o2)cc1 [Example 3] | middle interval
O=C(Nc1ccc(-c2nc3c(F)cccc3o2)cc1)c1ncco1 [Example 40] | low interval
CC1(C(=O)Nc2ccc(-c3nc4cccnc4o3)cc2)COC1 [Example 65] | high interval
O=C(Nc1ccc(-c2nc3cccc(F)c3o2)cc1)C1CC1 [Example 20] | low interval
CC1(C(=O)Nc2ccc(-c3nc4cccc(F)c4o3)cc2)CC1 [Example 32] | middle interval
O=C(Nc1ccc(-c2nc3ccc(F)cc3o2)cc1)C1CCOC1 (stereo not shown) [Example 1] | low interval
CC1(C(=O)Nc2ccc(-c3nc4cccc(F)c4o3)cc2)COC1 [Example 12] | low interval

Please examine the following record next.
[Q] Categorize the following entry: CC(C)(O)C(=O)Nc1ccc(-c2nc3c(F)cccc3o2)cc1 [Example 49]
[A] low interval
